experiment: Terminal half life in Sprague-Dawley rat at 0.6 mg/kg, iv
Type: ADME, organism-based
condition-context: in vivo, read-out: beta t1/2 (converted)
experimental-readout: half-life (h)
Please give a number only; it is taken to be in h.

Q: Given the entry COC(=O)Nc1ccc2c(c1)NC(=O)[C@H](C)CCC[C@H](N1CC[C@H](c3c(F)ccc(Cl)c3F)OC1=O)c1ncc-2[nH]1 , report its measured half-life.
A: 1.4

---

experiment: Half life in cynomolgus monkey liver microsomes
Assay type: ADME, Macaca fascicularis, Microsome
Listed here are molecules together with their documented half-life.
The number alone won't do; follow it with the unit.

COC(=O)Nc1ccc2c(c1)NC(=O)[C@H](C)CCC[C@H](N1CCC(c3c(F)ccc(Cl)c3F)CC1=O)c1cc-2ccn1 (mixture of isomers)
3 min

Q: Quick check: half-life of COC(=O)Nc1ccc2c(c1)NC(=O)[C@H](C)CCC[C@H](N1CCN(c3c(F)ccc(Cl)c3F)C(=O)C1=O)c1cc-2ccn1 ?
A: 80 min

Q: // query half-life value for entry COC(=O)Nc1ccc2c(c1)NC(=O)[C@H](C)CCC[C@H](N1CC[C@H](c3c(F)ccc(Cl)c3F)OC1=O)c1cncc-2c1
A: 2 min

Q: # lookup: half-life of COC(=O)Nc1ccc2c(c1)NC(=O)[C@H](C)CCC[C@H](N1CCC(c3c(F)ccc(Cl)c3F)NC1=O)c1cc-2ccn1 (some centres undefined)
A: 2 min

Q: What value of half-life has been reported for the following molecule? COC(=O)Nc1ccc2c(c1)NC(=O)[C@H](C)CCC[C@H](N1CC[C@H](c3c(F)ccc(Cl)c3F)OC1=O)c1cc-2ccn1
A: 12 min

Q: Look up half-life for this molecule: COC(=O)Nc1ccc2c(c1)NC(=O)[C@H](C)CCC[C@H](N1CCN(c3c(F)ccc(Cl)c3F)CC1=O)c1cc-2ccn1
A: 1 min

Q: Record request: half-life value, item COC(=O)Nc1ccc2c(c1)NC(=O)[C@H](C)CCC[C@H](N1CC(=O)N(c3c(F)ccc(Cl)c3F)CC1=O)c1cc-2ccn1
A: 27 min

Q: Consider the molecule shown here: COC(=O)Nc1ccc2c(c1)NC(=O)[C@H](C)CCC[C@H](N1CC[C@H](c3c(F)ccc(Cl)c3F)OC1=O)c1ccnc-2c1 What is its recorded half-life?
A: 9 min

Q: Record request: half-life value, item COC(=O)Nc1ccc2c(c1)NC(=O)[C@H](C)CCC[C@H](N1CC[C@H](c3c(F)ccc(Cl)c3F)OC1=O)c1ncc-2[nH]1
A: 17 min

---

experiment: Half life in rat liver microsomes
Assay type: ADME, Microsome
experimental-readout: half-life (min)
Enter your answer as a number in min; do not include the unit.

Q: Endpoint output: half-life of COC(=O)Nc1ccc2c(c1)NC(=O)[C@H](C)CCC[C@H](N1CCN(c3c(F)ccc(Cl)c3F)C(=O)C1=O)c1cc-2ccn1 . Value?
A: 60

Q: Fill blank: measured half-life of the molecule COC(=O)Nc1ccc2c(c1)NC(=O)[C@H](C)CCC[C@H](N1CCN(c3c(F)ccc(Cl)c3F)CC1=O)c1cc-2ccn1 is ____.
A: 9

Q: Given the entry COC(=O)Nc1ccc2c(c1)NC(=O)[C@H](C)CCC[C@H](N1CC[C@H](c3c(F)ccc(Cl)c3F)OC1=O)c1ncc-2[nH]1 , report its measured half-life.
A: 48

Q: Name the recorded half-life for COC(=O)Nc1ccc2c(c1)NC(=O)[C@H](C)CCC[C@H](N1CCC(c3c(F)ccc(Cl)c3F)CC1=O)c1cc-2ccn1 (mixture of isomers) .
A: 15

Q: Endpoint output: half-life of COC(=O)Nc1ccc2c(c1)NC(=O)[C@H](C)CCC[C@H](N1CC[C@H](c3c(F)ccc(Cl)c3F)OC1=O)c1cncc-2c1 . Value?
A: 9

Q: What half-life value was documented for this molecule, COC(=O)Nc1ccc2c(c1)NC(=O)[C@H](C)CCC[C@H](N1CC(=O)N(c3c(F)ccc(Cl)c3F)CC1=O)c1cc-2ccn1 ?
A: 55

Q: Which half-life is listed for COC(=O)Nc1ccc2c(c1)NC(=O)[C@H](C)CCC[C@H](N1CC[C@H](c3c(F)ccc(Cl)c3F)OC1=O)c1cc-2cnc1F ?
A: 6

Q: What half-life value was documented for this molecule, COC(=O)Nc1ccc2c(c1)NC(=O)[C@H](C)CCC[C@H](N1CC[C@H](c3c(F)ccc(Cl)c3F)OC1=O)c1cc-2ccn1 ?
A: 35

Q: Can you look up the measured half-life of COC(=O)Nc1ccc2c(c1)NC(=O)[C@H](C)CCC[C@H](N1CC[C@H](c3c(F)ccc(Cl)c3F)OC1=O)c1ccnc-2c1 for me?
A: 29

Q: // query half-life value for entry COC(=O)Nc1ccc2c(c1)NC(=O)[C@H](C)CCC[C@H](N1CCC(c3c(F)ccc(Cl)c3F)NC1=O)c1cc-2ccn1 (stereo not given in full)
A: 40

---

experiment: Terminal half life in Beagle dog at 0.4 mg/kg, iv
Assay type: ADME, organism-based, Canis lupus familiaris
condition-context: in vivo, read-out: beta t1/2 (converted)
experimental-readout: half-life (h)
Reply numerically in h, unit not repeated.

Q: Which half-life value belongs to COC(=O)Nc1ccc2c(c1)NC(=O)[C@H](C)CCC[C@H](N1CC[C@H](c3c(F)ccc(Cl)c3F)OC1=O)c1ncc-2[nH]1 ?
A: 1.9

---

experiment: Half life in human liver microsomes
Format: ADME, Microsome
// reported half-life for each item listed
Record the value in min, omitting the unit from your answer.

Q: // lookup half-life for COC(=O)Nc1ccc2c(c1)NC(=O)[C@H](C)CCC[C@H](N1CC(=O)N(c3c(F)ccc(Cl)c3F)CC1=O)c1cc-2ccn1
A: 75

Q: Given the entry COC(=O)Nc1ccc2c(c1)NC(=O)[C@H](C)CCC[C@H](N1CCC(c3c(F)ccc(Cl)c3F)NC1=O)c1cc-2ccn1 (stereo partly drawn) , report its measured half-life.
A: 17

Q: Dear colleague, I am looking for the recorded half-life of the following molecule: COC(=O)Nc1ccc2c(c1)NC(=O)[C@H](C)CCC[C@H](N1CC[C@H](c3c(F)ccc(Cl)c3F)OC1=O)c1cc-2ccn1
A: 56

---

experiment: Clearance in Sprague-Dawley rat at 0.6 mg/kg, iv
Assay type: ADME, organism-based
condition-context: in vivo
experimental-readout: clearance (L/h/kg)
Number in L/h/kg, nothing else.

COC(=O)Nc1ccc2c(c1)NC(=O)[C@H](C)CCC[C@H](N1CC[C@H](c3c(F)ccc(Cl)c3F)OC1=O)c1cc-2ccn1
1.38
COC(=O)Nc1ccc2c(c1)NC(=O)[C@H](C)CCC[C@H](N1CC[C@H](c3c(F)ccc(Cl)c3F)OC1=O)c1ccnc-2c1
1.98

Would you kindly look at the next entry?
Q: Please look up its clearance: COC(=O)Nc1ccc2c(c1)NC(=O)[C@H](C)CCC[C@H](N1CC[C@H](c3c(F)ccc(Cl)c3F)OC1=O)c1ncc-2[nH]1
A: 1.98

---

experiment: AUC in cynomolgus monkey at 0.5 mg/kg, iv
Format: ADME, organism-based, Macaca fascicularis
condition-context: in vivo
experimental-readout: AUC (µM·h)
Report only the number, with the unit µM·h understood.

Q: So what's the measured AUC for this one? COC(=O)Nc1ccc2c(c1)NC(=O)[C@H](C)CCC[C@H](N1CC[C@H](c3c(F)ccc(Cl)c3F)OC1=O)c1ncc-2[nH]1
A: 0.233

---

experiment: Apparent volume of distribution at steady-state in Sprague-Dawley rat at 0.6 mg/kg, iv
Assay type: ADME, organism-based
condition-context: in vivo, read-out: Vdss(app)
experimental-readout: Vd

Q: For the molecule shown here, COC(=O)Nc1ccc2c(c1)NC(=O)[C@H](C)CCC[C@H](N1CC[C@H](c3c(F)ccc(Cl)c3F)OC1=O)c1ncc-2[nH]1 , give the reported Vd.
A: 3.2 L/kg

---

Listed next: entries and their corresponding half-life.
experiment: Half life in human liver microsomes
Type: ADME, Microsome

Q: Bench note: what half-life did COC(=O)Nc1ccc2c(c1)NC(=O)[C@H](C)CCC[C@H](N1CCC(c3c(F)ccc(Cl)c3F)CC1=O)c1cc-2ccn1 (mixture of isomers) show?
A: 8 min

---

experiment: Oral bioavailability in cynomolgus monkey at 1.5 mg/kg
Type: ADME, organism-based, Macaca fascicularis
condition-context: in vivo
experimental-readout: bioavailability (%)
Numbers only; they are read as %.

Q: Which measured bioavailability value corresponds to COC(=O)Nc1ccc2c(c1)NC(=O)[C@H](C)CCC[C@H](N1CC[C@H](c3c(F)ccc(Cl)c3F)OC1=O)c1ncc-2[nH]1 ?
A: 29

---

experiment: AUC in Beagle dog at 1.1 mg/kg, po
Type: ADME, organism-based, Canis lupus familiaris
condition-context: in vivo
experimental-readout: AUC (µM·h)
Give the value, in units of µM·h, as a plain number.

Q: So what's the measured AUC for this one? COC(=O)Nc1ccc2c(c1)NC(=O)[C@H](C)CCC[C@H](N1CC[C@H](c3c(F)ccc(Cl)c3F)OC1=O)c1ncc-2[nH]1
A: 0.446
